- System: Acinetobacter baumannii
- measurement description: Inhibition of Acinetobacter baumannii biofilm formation after 24 hrs by crystal violet reporter assay
- Format: functional, organism-based
test readout: IC50 (µM)
One number for each entry, in µM.

Request: GET /values?readout=IC50&item= CCCCCCCCCC(=O)Nc1ccccc1-c1cnc(N)[nH]1.Cl
Response: 43
